B1: Osa-1-4 twister ribozyme (parent)
chain: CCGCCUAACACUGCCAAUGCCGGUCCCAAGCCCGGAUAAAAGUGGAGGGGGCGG

variants of: B1; assay: self-cleavage, relative activity (ratio to wild type); higher = more cleavage; co-transcriptional
reported_property: self-cleavage
Please reply with the value in numeric form only.

CCGCCUAAAACUGCCAAUGCCGGUCCCAAGCCCGGAUAAAAGUGGAGGGGUCGG [C9A G51U]    0.05
CCGCCUAAAACUGCCAAUGCCGGUCCCAAGCCCGGAUUAAAGUGGAGGGGGCGG [A38U C9A]    0.42
CCGCCUAACACUGCCAAUGCCGGUCCCAAGCCCGGAUAAAAGUGGUUGGGGCGG [A46U G47U]    0.05
CCGCCUAACACUGCCAAUGCCGUUCCCAAGCGCGGAUAAAAGUGGAGGGGGCGG [C32G G23U]    0.29
CCGCCUAACUCUGCUAAUGCCGGUCCCAAGCCCGGAUAAAAGUGGAGGGGGCGG [A10U C15U]    0.04
CCGCCUAAUACUGCCAAUGCCGGUCCCAAGCCCAGAUAAAAGUGGAGGGGGCGG [C9U G34A]    0.41
CCGCCUAACACUGCCAAUGCCGGUCCCAAGCCCGGGUAAAACUGGAGGGGGCGG [A36G G42C]    0.24
CCGCCUUACACUGCCAAUGCCGGUCCCAAGCCCGGAUAAAAGUAGAGGGGGCGG [A7U G44A]    0.06
CCGCCUAACACUGCCAAUCCCGGUCCCAAGCCCGGAUAAAAGUAGAGGGGGCGG [G19C G44A]    0.07
CCGCCUAACACUGCCAAUGCCGGUCCCAAGCCCGGAUAAAAGUGGAAGUGGCGG [G47A G49U]    0.04

Form: variant = CCGCCUAAUACUGCCAAUGCCGGUCCCAAGCCCGGCUAAAAGUGGAGGGGGCGG [A36C C9U] ; self-cleavage = 0.21

Form: variant = CCGCCUAACACUGUCAAUGCCGGUCCCAAGCCCGGAUAAAAGUGGAGGGGGCCG [C14U G53C] ; self-cleavage = 0.05

Form: variant = CCGCCUAACACUGCCAAUGCCGGUCCCAAGCCCGGAUAGAAGUGGAGGGGUCGG [A39G G51U] ; self-cleavage = 0.3

Form: variant = CCGCCUAACACUGCCAGUGCCGGUCACAAGCCCGGAUAAAAGUGGAGGGGGCGG [A17G C26A] ; self-cleavage = 0.08

Form: variant = CCGCCUAACACUGCCAAUGCCGGUCCCAAGCCCGGAUAAAAGUAGAGGGUGCGG [G44A G50U] ; self-cleavage = 0.97

Form: variant = CCGCCUAACACUGCCAAUGCCGGUCCCAGGCCCGGAUAAAUGUGGAGGGGGCGG [A29G A41U] ; self-cleavage = 0.46

Form: variant = CCGCCUAACACUGCCAAUGCUUGUCCCAAGCCCGGAUAAAAGUGGAGGGGGCGG [C21U G22U] ; self-cleavage = 0.1

Form: variant = CCGCCUAACACUGCCAAUGCCGGUCCAAAGCCCGGAUAAAAGUGGAGGCGGCGG [C27A G49C] ; self-cleavage = 0.03

Form: variant = CCGCCUAACACUGCCAAUGCCGGUCCCAAGCCCGGACAAAAGUGGAGCGGGCGG [G48C U37C] ; self-cleavage = 0.1

Form: variant = CCGCCUAACACUGCCUAUGCCGGUCCCAAGCCCGGAUAAAAGUGGAUGGGGCGG [A16U G47U] ; self-cleavage = 0.2

Form: variant = CCGCCUGCCACUGCCAAUGCCGGUCCCAAGCCCGGAUAAAAGUGGAGGGGGCGG [A7G A8C] ; self-cleavage = 0.1

Form: variant = CCGCCUAACACUGCCAAGGCCGGUCCCAAGCCCGGAUAAAAGUGGAGGGGGAGG [C52A U18G] ; self-cleavage = 0.82

Form: variant = CCGCCUAACACUGCCAAUGCCGGUCCCAAGCCUGGAUAAAAGUGGUGGGGGCGG [A46U C33U] ; self-cleavage = 0.06

Form: variant = CCGCCUAACACUGCCAAUGCCGGUCCAAAGCCCGGAUAAAAGUGGAGGGAGCGG [C27A G50A] ; self-cleavage = 0.22
